test-method-notes: reduction of polyQ htt aggregates in cells – imaging, exon1htt(103Q)mCFP cells, high-content imaging, primary screen (AID 483);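 note: compound exposure lasted 3 days before fixation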
conditions-used: exon1htt(103Q)mCFP cell line, aggregate imaging, at 2 µM; stronger effect = higher value
observation-type: inhibition of aggregation (%)
Use % as the unit, but write only the number.

Please review the following examples before continuing.
1) CC1CCN(C(=O)CSc2nc3c(cnn3-c3ccccc3)c(=O)[nH]2)CC1; -5.6
2) O=C1CCCC2=C1C(c1cccs1)n1nc(SCc3ccccc3F)nc1N2 (stereo not given); 16.5
3) COCCn1nnnc1CN1CCC(Cc2ccccc2)CC1; -12.1
4) CC1CCN(C(=O)CSc2nnc(Cc3cc(=O)[nH]c(=O)[nH]3)n2-c2ccc(Cl)cc2)CC1; 14.9
5) CCn1cc(C(=O)O)c(=O)c2cc(F)c(N3CCN(C(=O)Nc4ccccc4)CC3)cc21; 27.3
6) CC(=O)Nc1nc(=S)ss1; 1.3
7) Cc1cc(Nc2ccc(C(=O)O)cc2)n2nc(C)nc2n1; 9.8
8) O=C(C1CCCCC1)N1CCC(c2nc3c(nnn3Cc3c(F)cccc3Cl)c(=O)[nH]2)CC1; -15.9

For the compound Cc1ccc2nc(NCCCN3CCOCC3)c(C=NCCCN3CCOCC3)c(=O)n2c1 , what inhibition of aggregation is on record? -38.5

Try this compound next: Cc1ccc(S(=O)(=O)NCC(=O)N(CC(=O)NCc2ccccc2)CC2CCCO2)cc1 (stereo not given) 14.8

Try this compound next: O=[n+]1cc(-c2ccc(F)cc2)n([O-])c2c1CCC2 8.8

Try this compound next: CC(C)Cc1nnc(NC(=O)CCC(=O)N2CCOCC2)s1 -2

Try this compound next: COC(=O)c1ccccc1NC1c2ccccc2C(=O)N1c1cccnc1 (stereo not given) -10.5

Try this compound next: Cc1csc(SCc2nc3sc4c(c3c(=O)[nH]2)CCC4)n1 0.1

====

test-method-notes: endothelial E-selectin expression blockers – imaging, HUVEC, immunofluorescence, MLSMR starter and 10KST1 sets, primary screen (AID 487);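 note: signal is fraction of cell area covered by stained E-selectin grains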
conditions-used: HUVEC TNFalpha-induced E-selectin immunofluorescence imaging, at 2 µM; stronger effect = higher value
Class T: inhibition at least -20%. Class F: inhibition below -20%.

Answered cases to consult:
1) C=CCn1c(SCC(=O)NCCCC)nc2scc(-c3ccco3)c2c1=O; T
2) CCc1cc2c(=O)n(C(C)C(=O)OC3CCCCC3)cnc2s1 (stereo unspecified); F
3) CCn1c(C)nc2cc(C(=O)OCCC(F)(F)F)ccc21; T

Would you say CCOC(=O)/C=C1\SCC(=O)N1Cc1ccc(Br)cc1 shows inhibition at minimum -20%? F

Try this compound next: COC(=O)CSc1nc2ncc(Cl)cc2[nH]1 F

====

test-method-notes: blockers of RIG-like receptor reporter activation – cell-based, Sendai virus stimulus, luciferase, 10K MLSCN set, TLR/RLR signaling modifier project, primary screen (AID 602276);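 note: firefly luciferase from ISG56 promoter only with Renilla not read in this screen; 0% = Sendai virus plus DMSO and 100% = medium plus DMSO without virus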
conditions-used: HEK293 RL24 IRF3 luciferase reporter, at 10 µM, stronger effect = higher value
The following compounds are shown together with reported inhibition values.
Use % as the unit, but write only the number.

1) CCc1nnc(NC(=O)CSc2nnc(-c3ccc(OC)cc3)n2C)s1; 12.5

For the compound CN(C)c1cc(NC(=O)CN2CCOCC2)c2ccccc2n1 , what inhibition is on record? 9.32

Try this compound next: c1ccc2c(c1)nc(NCCN1CCOCC1)c1nncn12 12.4

Try this compound next: COc1ccccc1C1CC(c2ccc(C)cc2)Nc2ncnn21 (stereo not drawn) -7.75

Try this compound next: Cc1ccc(NC(=O)CC2C(=O)NC3CCCCC3N2C(=O)c2ccc(F)cc2)cc1C (stereo not drawn) 12.1

====

test-method-notes: endothelial E-selectin expression blockers – imaging, HUVEC, immunofluorescence, MLSMR starter and 10KST1 sets, primary screen (AID 487);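 note: signal is fraction of cell area covered by stained E-selectin grains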
conditions-used: HUVEC TNFalpha-induced E-selectin immunofluorescence imaging, at 2 µM; stronger effect = higher value
The following compounds are shown together with reported inhibition values.
Use % as the unit, but write only the number.

Please review the following examples before continuing.
1) COc1ccc(CCn2c(-c3ccco3)nc3nc4ccccc4nc32)cc1; -25.4
2) CCOc1cc(S(=O)(=O)N2CCC(Cc3ccccc3)CC2)c(OCC)cc1-n1cnnn1; -119
3) Cc1noc(C)c1S(=O)(=O)N1CCN(Cc2ccc3c(c2)OCO3)CC1; -16.7
4) COc1ccc(OC)c(NC(=O)CCN2CCC(C)CC2)c1; -120

For the compound c1ccc(Nc2ccccc2Nc2ccccn2)nc1 , what inhibition is on record? 8.5

Try this compound next: CCOc1ccc(-c2nc(N)ncc2-c2ccccc2)c(O)c1 -32.6

Try this compound next: Cc1ccccc1-n1nnc2c(=O)oc3ccccc3c21 -83

====

test-method-notes: endothelial E-selectin expression blockers – imaging, HUVEC, immunofluorescence, MLSMR starter and 10KST1 sets, primary screen (AID 487);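 note: signal is fraction of cell area covered by stained E-selectin grains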
conditions-used: HUVEC TNFalpha-induced E-selectin immunofluorescence imaging, at 2 µM; stronger effect = higher value
observation-type: inhibition (%)
Use % as the unit, but write only the number.

Please review the following examples before continuing.
1. CCOC(=O)Cn1nc(-c2ccc(Cl)cc2)cc1N; -2.9
2. O=C(NCc1nnc(SCC(=O)N2CCC(Cc3ccccc3)CC2)o1)c1ccccc1F; 5.1
3. O=C(NCC(=O)N(Cc1cccs1)C(C(=O)NC1CCCC1)c1ccncc1)c1ccco1 (stereo unspecified); -26.6

For the molecule CC1=Nn2c(nnc2-c2ccc(F)cc2)SC1 , what inhibition is on record? -66

Try this molecule next: Cc1nc2ccc(N3C(=O)CCC3=O)cc2[nH]1 -42.2

Try this molecule next: CCCCOc1ccc(C2C3CN(C(=O)OCC)CC=C3C(C#N)=C(N)C2(C#N)C#N)cc1OC (stereo unspecified) -44.7

Try this molecule next: O=C(O)CCNc1nc(-c2ccccc2)nc2ccccc12 -28.1

Try this molecule next: Cc1nc(SCC(=O)Nc2cc(C)on2)c2c3c(sc2n1)CCCC3 -33.9

Try this molecule next: Cc1ccc(C(=O)CC2(O)C(=O)N(CN3CCOCC3)c3ccccc32)cc1 (stereo unspecified) -52.9

Try this molecule next: CCCCCc1c(O)nc(SCC(=O)NCC2CCCO2)[nH]c1=O (stereo unspecified) -51.3

Try this molecule next: CCN(C(=O)c1cc(Cl)ccc1OC)c1ccccc1 -7.9

====

test-method-notes: TLR3 IRF3 reporter activation blockers – cell-based, poly I:C stimulus, luciferase, 10K MLSCN set, primary screen (AID 602277)
conditions-used: HEK293-TLR3 RL24 IRF3 luciferase reporter, at 10 µM
Activity calls are given as the source filed them.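 Rule for the calls: active = inhibition of the reporter signal at or above 50%; inactive = inhibition below 50%.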
Entry note: the call must match one of active, inactive

Answered cases to consult:
1. CC1CCN(CCn2c(=S)[nH]c3ncccc3c2=O)CC1; inactive
2. COC(=O)c1ccc(C)c(NS(=O)(=O)c2ccc3c(c2)OCCO3)c1; active
3. Cc1cc(C(=O)NCCCN2CCOCC2)n(-c2ccccc2)n1; inactive
4. CN1CCN(C2=C(Cl)C(=O)N(c3cccc(Cl)c3)C2=O)CC1; inactive
5. Cc1ccc(S(=O)(=O)Nc2nc3ccccc3nc2NCc2ccco2)cc1; inactive

Turning now to a further compound:
Assay result, entry O=C1c2ccccc2C(=O)N1C/C=C/CN1C(=O)c2ccccc2C1=O — outcome? inactive

====

assay-system: Voltage-gated potassium channel subunit beta-2 (Rattus norvegicus) (UniProt P62483)
Sequence (P62483 whole entry, looked up): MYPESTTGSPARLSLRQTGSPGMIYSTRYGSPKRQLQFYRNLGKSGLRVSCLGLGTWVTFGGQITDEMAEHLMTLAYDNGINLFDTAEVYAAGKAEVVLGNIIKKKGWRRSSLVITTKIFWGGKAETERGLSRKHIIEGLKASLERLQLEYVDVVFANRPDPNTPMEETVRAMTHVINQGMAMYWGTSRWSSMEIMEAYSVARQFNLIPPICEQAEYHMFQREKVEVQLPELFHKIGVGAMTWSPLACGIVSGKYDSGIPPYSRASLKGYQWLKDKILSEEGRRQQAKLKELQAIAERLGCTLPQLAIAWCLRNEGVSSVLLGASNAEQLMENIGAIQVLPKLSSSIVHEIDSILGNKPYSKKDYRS
test-method-notes: enhancers of rat Kvbeta2 NADPH turnover – biochemical, NADPH fluorescence, primary screen (AID 623);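 note: fluorescence intensity change per second fitted from 20 to 320 s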
conditions-used: Recombinant KvBeta, NADPH fluorescence decrease slope, 10 min; at 10 µM; stronger effect = lower value
observation-type: NADPH fluorescence slope
Give your answer as a number; write no unit.

For the molecule CC(C)C1N=C2c3ccccc3N=C(SCc3cc(=O)n4ccccc4n3)N2C1=O (stereo not given) , what NADPH fluorescence slope is on record? 2.2e-05

Try this molecule next: Cc1occc1-c1nc(-c2ccncc2)no1 1.8e-05

Try this molecule next: Cc1c2cnn(CC(=O)N3CCN(c4ncccn4)CC3)c(=O)c2c(C)n1Cc1ccc(F)cc1 -3.3e-05

Try this molecule next: Cc1ccc(C2C(C(=O)c3sc(C)nc3C)=C(O)C(=O)N2CCN(C)C)o1 (stereo not given) -4.5e-05

Try this molecule next: O=c1c2c(-c3ccccc3)csc2nc2n1CCC2 -8.9e-06

Try this molecule next: CCOC(=O)C1CCCN(C/C(O)=C(\C#N)c2nc(-c3ccc(Cl)cc3)cs2)C1 (stereo not given) -3.4e-06

====

test-method-notes: reduction of polyQ htt aggregates in cells – imaging, exon1htt(103Q)mCFP cells, high-content imaging, primary screen (AID 483);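 note: compound exposure lasted 3 days before fixation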
conditions-used: exon1htt(103Q)mCFP cell line, aggregate imaging, at 2 µM; stronger effect = higher value
Class MET: inhibition of aggregation at least -20%. Class NOT MET: inhibition of aggregation below -20%.

Would you say CCOc1ccccc1N(C(=O)Cn1nnnc1-c1ccc(C)o1)C(CC)C(=O)NC(C)(C)C (stereo unspecified) shows inhibition of aggregation at minimum -20%? MET

Try this compound next: O=C(NCC(c1cccnc1)N1CCOCC1)c1ccco1 (stereo unspecified) MET

Try this compound next: CCOC(=O)c1cc2sc(C)cc2n1CC(=O)NCc1ccc(F)cc1 NOT MET

Try this compound next: CCCC1(CCC)NC(=O)NC1=O NOT MET

Try this compound next: OC(CN1CCN(c2ccccn2)CC1)Cn1c2ccccc2c2ccccc21 (stereo unspecified) MET
